Sourced from ChEMBL document CHEMBL1122866

# Measurement target: Sodium-dependent dopamine transporter (Rattus norvegicus)
# Sequence (P23977 whole entry): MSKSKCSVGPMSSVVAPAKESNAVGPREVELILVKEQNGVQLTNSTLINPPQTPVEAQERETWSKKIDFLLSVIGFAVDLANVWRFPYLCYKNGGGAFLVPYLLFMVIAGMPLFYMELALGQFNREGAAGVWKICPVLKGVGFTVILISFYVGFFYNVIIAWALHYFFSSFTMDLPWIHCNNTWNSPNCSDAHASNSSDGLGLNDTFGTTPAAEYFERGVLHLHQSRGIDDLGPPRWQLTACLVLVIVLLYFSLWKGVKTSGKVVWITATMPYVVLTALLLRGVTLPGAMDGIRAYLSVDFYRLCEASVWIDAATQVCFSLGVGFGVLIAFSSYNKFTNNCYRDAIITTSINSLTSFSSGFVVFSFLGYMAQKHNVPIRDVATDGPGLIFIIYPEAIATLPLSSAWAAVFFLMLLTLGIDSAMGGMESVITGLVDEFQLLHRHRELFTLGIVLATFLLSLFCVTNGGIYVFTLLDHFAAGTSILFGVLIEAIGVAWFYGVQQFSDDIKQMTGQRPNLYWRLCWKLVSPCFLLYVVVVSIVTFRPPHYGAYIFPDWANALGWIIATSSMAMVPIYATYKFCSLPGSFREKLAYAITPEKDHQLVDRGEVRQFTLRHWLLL
# Assay notes: Inhibition of dopamine uptake in rat synaptosomal fraction
pIC50: −log10 of the molar value.
Outcome label depends on pIC50 relative to 8: at/above gives criterion met, below gives criterion not met.

| Molecule | Class assignment |
| --- | --- |
| CNC1CC(c2ccc(Cl)c(Cl)c2)c2ccc(F)cc21.Cl (stereo in doubt; 50) | criterion met |
| CNC1CC(c2ccc(Cl)c(Cl)c2)c2ccc(O)cc21 (stereo in doubt; 80) | criterion met |
| Clc1ccc(C2CC(N3CCCC3)c3ccccc32)cc1Cl (stereo in doubt; 97) | criterion not met |
| CNC1CC(c2ccc(Cl)cc2)c2ccccc21 (centres undefined) | criterion met |
| CN1CCN(C2CC(c3ccc(Cl)c(Cl)c3)c3ccccc32)CC1 (single isomer, unassigned; (+)-102) | criterion not met |
| CNC1CC(c2ccc(F)c(F)c2)c2ccccc21.Cl (stereo in doubt; 68) | criterion not met |
| CN(C)C1CC(c2ccccc2)c2ccccc21.Cl (stereo in doubt; 31) | criterion not met |
| CN(C)C1CC(c2cccc(Cl)c2)c2ccccc21.Cl (stereo in doubt; 40) | criterion not met |
| CN(C)C1CC(c2ccc(F)c(F)c2)c2ccccc21 (centres undefined) | criterion not met |
| CNC1CC(c2ccc(Cl)c(Cl)c2)c2ccc(F)cc21.Cl (stereo in doubt; 76) | criterion met |
| CNC1CC(c2ccc(Cl)c(Cl)c2)c2ccc(OC)cc21 (centres undefined) | criterion met |
| CN(C)C1CC(c2ccc(F)cc2)c2ccccc21.Cl (stereo in doubt; 33) | criterion not met |
| CNC1CC(c2cccc(Cl)c2)c2ccccc21.Cl (stereo in doubt; 66) | criterion not met |
| Clc1ccc(C2CC(N3CCCCC3)c3ccccc32)cc1Cl (stereo in doubt; 100) | criterion not met |
